Experiment: Selectivity index, ratio of IC50 for cytotoxicity against human MRC5 cells to IC50 for antileishmanial activity against Leishmania major (MHOM/IL/80/Friedlin) promastigotes
Type: toxicity, cell-based
Details: read-out: Ratio IC50
Class true: selectivity ratio at least 0.2. Class false: selectivity ratio below 0.2.

{"compound": "C[n+]1cccc2c(N3C(=O)c4ccc5c6c(ccc(c46)C3=O)C(=O)N(c3cccc4c3ccc[n+]4C)C5=O)cccc21", "label": "false"}

Ask: Is selectivity ratio for C[n+]1cc(N2C(=O)c3ccc4c5c(ccc(c35)C2=O)C(=O)N(c2cc3ccccc3[n+](C)c2)C4=O)cc2ccccc21 at or above 0.2?
Result: false

Ask: Is selectivity ratio for CN1CCN(c2cccc(N3C(=O)c4ccc5c6c(ccc(c46)C3=O)C(=O)N(c3cccc(N4CCN(C)CC4)c3)C5=O)c2)CC1 at or above 0.2?
Result: true

Ask: Is selectivity ratio for CC(CN1C(=O)c2ccc3c4c(ccc(c24)C1=O)C(=O)N(CC(C)N1CCN(C)CC1)C3=O)N1CCN(C)CC1 (stereo unspecified) at or above 0.2?
Result: false

Ask: Is selectivity ratio for C[n+]1ccc(CN2C(=O)c3ccc4c5c(ccc(c35)C2=O)C(=O)N(Cc2cc[n+](C)cc2)C4=O)cc1 at or above 0.2?
Result: true

Ask: Is selectivity ratio for O=C1c2ccc3c4c(ccc(c24)C(=O)N1c1ccc(N2CCOCC2)cc1)C(=O)N(c1ccc(N2CCOCC2)cc1)C3=O at or above 0.2?
Result: true

Ask: Is selectivity ratio for C[n+]1cccc2cc(N3C(=O)c4ccc5c6c(ccc(c46)C3=O)C(=O)N(c3ccc4c(ccc[n+]4C)c3)C5=O)ccc21 at or above 0.2?
Result: false

Ask: Is selectivity ratio for CC(CCN1C(=O)c2ccc3c4c(ccc(c24)C1=O)C(=O)N(CCC(C)N1CCN(C)CC1)C3=O)N1CCN(C)CC1 (stereo unspecified) at or above 0.2?
Result: true

Ask: Is selectivity ratio for O=C1c2ccc3c4c(ccc(c24)C(=O)N1c1ccccc1N1CCOCC1)C(=O)N(c1ccccc1N1CCOCC1)C3=O at or above 0.2?
Result: true

Ask: Is selectivity ratio for O=C1c2ccc3c4c(ccc(c24)C(=O)N1CCCN1CCOCC1)C(=O)N(CCCN1CCOCC1)C3=O at or above 0.2?
Result: true

Ask: Is selectivity ratio for CN1CCN(CC2(CN3C(=O)c4ccc5c6c(ccc(c46)C3=O)C(=O)N(CC3(CN4CCN(C)CC4)CC3)C5=O)CC2)CC1 at or above 0.2?
Result: false

Ask: Is selectivity ratio for CN1CCN(C(C)(C)CN2C(=O)c3ccc4c5c(ccc(c35)C2=O)C(=O)N(CC(C)(C)N2CCN(C)CC2)C4=O)CC1 at or above 0.2?
Result: false

Ask: Is selectivity ratio for CN1CCN(c2ccc(N3C(=O)c4ccc5c6c(ccc(c46)C3=O)C(=O)N(c3ccc(N4CCN(C)CC4)cc3)C5=O)cc2)CC1 at or above 0.2?
Result: true

Ask: Is selectivity ratio for CN1CCN(CCN2C(=O)c3ccc4c5c(ccc(c35)C2=O)C(=O)N(CCN2CCN(C)CC2)C4=O)CC1 at or above 0.2?
Result: true

Hey, just so you know, these numbers are from ChEMBL document CHEMBL5108010.
